Cited source: paper PMC6555819

# assayed-system: FXR:RXRa (Homo sapiens, UniProt Q96RI1;P19793 full;full)
# Sequence (Q96RI1 whole entry, chain 1 of 2): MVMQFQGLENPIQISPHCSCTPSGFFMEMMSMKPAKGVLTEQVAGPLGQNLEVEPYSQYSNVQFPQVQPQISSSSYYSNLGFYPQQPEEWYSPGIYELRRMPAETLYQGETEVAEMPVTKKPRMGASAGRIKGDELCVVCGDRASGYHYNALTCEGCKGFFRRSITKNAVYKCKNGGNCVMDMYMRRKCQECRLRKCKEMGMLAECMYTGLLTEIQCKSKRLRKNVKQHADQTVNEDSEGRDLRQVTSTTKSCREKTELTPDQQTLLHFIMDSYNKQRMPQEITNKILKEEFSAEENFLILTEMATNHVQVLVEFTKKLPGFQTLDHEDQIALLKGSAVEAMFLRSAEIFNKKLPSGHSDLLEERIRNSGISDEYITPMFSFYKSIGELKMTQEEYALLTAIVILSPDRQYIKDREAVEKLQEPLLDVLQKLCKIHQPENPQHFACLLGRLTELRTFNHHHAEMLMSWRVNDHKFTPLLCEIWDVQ
# Sequence (P19793 whole entry, chain 2 of 2): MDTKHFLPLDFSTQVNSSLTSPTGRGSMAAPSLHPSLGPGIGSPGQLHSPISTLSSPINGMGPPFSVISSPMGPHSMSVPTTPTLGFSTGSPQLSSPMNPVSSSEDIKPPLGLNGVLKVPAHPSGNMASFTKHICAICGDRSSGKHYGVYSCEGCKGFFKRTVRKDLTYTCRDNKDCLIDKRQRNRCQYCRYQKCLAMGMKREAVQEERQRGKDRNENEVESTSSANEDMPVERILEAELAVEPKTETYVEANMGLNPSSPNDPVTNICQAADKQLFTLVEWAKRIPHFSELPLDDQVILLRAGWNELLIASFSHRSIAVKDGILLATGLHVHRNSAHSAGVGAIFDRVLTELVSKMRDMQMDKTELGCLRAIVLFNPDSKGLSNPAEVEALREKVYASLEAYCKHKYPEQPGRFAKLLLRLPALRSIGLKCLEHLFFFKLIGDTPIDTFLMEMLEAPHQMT
# procedure-summary: no ligand; PBM; 270 nM : 90 nM RXRa; PBS pH 7.4, 2% milk, 0.02% Triton X-100, 1 mM DTT, BSA, 0.4 mg/ml salmon testes DNA
# condition-set: tags: His kept;His cleaved; copies: 1;1; label: surface-attached array probe
# maps each entry to its binding signal

Inquiry: Name the reported binding signal value associated with the binder NRC3_wobSeed73_DR3_T8C_o1 (dsDNA) DNA 1: GCCAAACCAGGTCACAGAGGTCAAAGTCCGTGCGTAGCGATTGACAGCGTAGAATGAAGG DNA 2: CCTTCATTCTACGCTGTCAATCGCTACGCACGGACTTTGACCTCTGTGACCTGGTTTGGC
Reply text: 8 PBM z-score against 500 random probes

Inquiry: Name the reported binding signal value associated with the binder NRC3_wobSeed17_DR0_T21G_o1 (dsDNA) DNA 1: GCATATGTAGGTTAGGGTCAGTCAGAAAGTAGGGAAGCGATTGACAGCGTAGAATGAAGG DNA 2: CCTTCATTCTACGCTGTCAATCGCTTCCCTACTTTCTGACTGACCCTAACCTACATATGC
Reply text: 3 PBM z-score against 500 random probes
